# MEASURED TARGET: Regulator of chromosome condensation (Homo sapiens) + GTP-binding nuclear protein Ran (Homo sapiens) + Importin subunit beta-1 (Homo sapiens) (UniProt P18754+P62826+Q14974)
# ASSAY NAME: RanGTP/importin-beta interaction disruptors – biochemical, CFP-Ran/YFP-importin-beta FRET, RCC1, cell-free, primary screen (AID 434961);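 further: 0% = DMSO wells and 100% inhibition = RanGDP control wells on each plate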
# EXPERIMENTAL CONDITIONS: concentration not given here
About 15 (0.2%) of roughly 7,700 compounds were called active. About 6% were inconclusive and are not listed.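 How the source made its calls: active means more than half of replicate wells with inhibition above about 18% (limit read from the data, passing the limit was not always enough); inconclusive means exactly half of replicate wells above that limit; inactive means fewer than half of replicates above it.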 The entries come from a sample that favours actives as a whole.
Hi there, use one of these labels in your reply, thanks! active, inactive

{"CHEMICAL STRUCTURE": "Cc1noc(C)c1NC(=O)Nc1ccc2c(c1)C(=O)N([C@@H](C)CO)C[C@@H](C)[C@@H](CN(C)C(=O)CCCN(C)C)OCCCC[C@@H](C)O2", "LABEL CLASS": "inactive"}
{"CHEMICAL STRUCTURE": "C[C@@H]1CCCCO[C@@H](CN(C)C(=O)CCC(F)(F)F)[C@H](C)CN([C@@H](C)CO)C(=O)c2cc(NC(=O)CCC(F)(F)F)ccc2O1", "LABEL CLASS": "inactive"}
{"CHEMICAL STRUCTURE": "C[C@H](CO)N1C[C@H](C)[C@@H](CN(C)C(=O)NC2CCCCC2)Oc2c(NS(=O)(=O)c3ccccc3)cccc2C1=O", "LABEL CLASS": "inactive"}

Q: In this assay, the call recorded for CC(C)NC(=O)N(C)C[C@@H]1Oc2c(NC(=O)C3CCOCC3)cccc2C(=O)N([C@H](C)CO)C[C@H]1C was what?
Ans: inactive

Q: Please indicate how the test categorized Cc1noc(C)c1NC(=O)N(C)C[C@H]1Oc2ccc(NC(=O)Cc3ccccc3)cc2C(=O)N([C@H](C)CO)C[C@H]1C .
Ans: inactive

Q: Name the outcome recorded for C[C@@H]1CCCCO[C@@H](CN(C)C(=O)CCC(F)(F)F)[C@@H](C)CN([C@@H](C)CO)C(=O)c2cc(NC(=O)CCC(F)(F)F)ccc2O1 in the assay.
Ans: active

Q: Please share the test call associated with C[C@H]1CCCCO[C@H](CN(C)Cc2ccc(C(=O)O)cc2)[C@@H](C)CN([C@@H](C)CO)C(=O)c2cc(NC(=O)Nc3ccc(F)cc3)ccc2O1 .
Ans: inactive

====

# MEASURED TARGET: Regulator of chromosome condensation (Homo sapiens) + GTP-binding nuclear protein Ran (Homo sapiens) + Importin subunit beta-1 (Homo sapiens) (UniProt P18754+P62826+Q14974)
# ASSAY NAME: RanGTP/importin-beta interaction disruptors – biochemical, CFP-Ran/YFP-importin-beta FRET, RCC1, cell-free, primary screen (AID 434961);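 further: 0% = DMSO wells and 100% inhibition = RanGDP control wells on each plate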
# EXPERIMENTAL CONDITIONS: hits give high values, concentration not given here
In all, about 7,700 compounds went through this assay and about 15 (0.2%) were called active. Another 6% or so got no clear call; they are omitted. The sample as a whole holds a higher share of actives than the screen did.
Each entry below carries its recorded inhibition.
Answer format: numeric, % implied, no suffix.

Some compounds with recorded inhibition:
{"CHEMICAL STRUCTURE": "C[C@@H]1CN([C@H](C)CO)C(=O)Cc2cc(NC(=O)Nc3ccc4c(c3)OCO4)ccc2O[C@@H]1CN(C)CC1CC1", "UNIT SPEC": "%", "DATA VALUE": 24.2}
{"CHEMICAL STRUCTURE": "C[C@@H]1CN([C@H](C)CO)C(=O)c2cccc(NS(=O)(=O)c3cn(C)cn3)c2O[C@H]1CN(C)C", "UNIT SPEC": "%", "DATA VALUE": -0.231}
{"CHEMICAL STRUCTURE": "C[C@@H]1CN([C@@H](C)CO)C(=O)c2cc(NC(=O)Nc3ccc4c(c3)OCO4)ccc2O[C@@H]1CN(C)Cc1ccc(C(=O)O)cc1", "UNIT SPEC": "%", "DATA VALUE": -3.71}
{"CHEMICAL STRUCTURE": "Cc1noc(C)c1NC(=O)Nc1ccc2c(c1)C(=O)N([C@H](C)CO)C[C@@H](C)[C@@H](CN(C)C(=O)Nc1c(C)noc1C)OCCCC[C@@H](C)O2", "UNIT SPEC": "%", "DATA VALUE": 20.4}
{"CHEMICAL STRUCTURE": "C[C@@H]1CN([C@H](C)CO)C(=O)c2cc(NC(=O)Nc3ccccc3)ccc2O[C@@H](C)CCCCO[C@H]1CN(C)S(=O)(=O)c1ccc(F)cc1", "UNIT SPEC": "%", "DATA VALUE": 4.18}

Item: C[C@H]1CN([C@@H](C)CO)C(=O)c2cccc(NS(=O)(=O)c3cn(C)cn3)c2O[C@@H]1CN(C)CC1CC1 | inhibition: -0.875
